Overview of reported Abs 630 (25 nM) across a group of binders:
Molecular target: T1, human IL-10 receptor (hIL-10R alpha and beta chains) on HEK-Blue IL-10 reporter cells (human, UniProt Q13651 22-578; Q08334 20-325)
T1 sequence 1: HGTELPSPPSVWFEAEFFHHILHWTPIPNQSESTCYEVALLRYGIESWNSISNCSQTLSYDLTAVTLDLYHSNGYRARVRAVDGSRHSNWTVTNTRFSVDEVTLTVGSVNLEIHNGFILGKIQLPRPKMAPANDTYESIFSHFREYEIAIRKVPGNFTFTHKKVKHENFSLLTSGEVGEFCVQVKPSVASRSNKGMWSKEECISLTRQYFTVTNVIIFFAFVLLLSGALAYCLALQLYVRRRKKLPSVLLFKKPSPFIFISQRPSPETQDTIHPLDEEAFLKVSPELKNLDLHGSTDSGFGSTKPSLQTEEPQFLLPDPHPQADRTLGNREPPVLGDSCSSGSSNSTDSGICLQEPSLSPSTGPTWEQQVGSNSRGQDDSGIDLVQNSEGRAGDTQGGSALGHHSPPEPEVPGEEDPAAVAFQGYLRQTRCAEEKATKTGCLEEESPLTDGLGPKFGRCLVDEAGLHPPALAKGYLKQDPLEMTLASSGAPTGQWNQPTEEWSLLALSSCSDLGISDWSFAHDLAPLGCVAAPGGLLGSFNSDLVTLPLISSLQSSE
T1 sequence 2: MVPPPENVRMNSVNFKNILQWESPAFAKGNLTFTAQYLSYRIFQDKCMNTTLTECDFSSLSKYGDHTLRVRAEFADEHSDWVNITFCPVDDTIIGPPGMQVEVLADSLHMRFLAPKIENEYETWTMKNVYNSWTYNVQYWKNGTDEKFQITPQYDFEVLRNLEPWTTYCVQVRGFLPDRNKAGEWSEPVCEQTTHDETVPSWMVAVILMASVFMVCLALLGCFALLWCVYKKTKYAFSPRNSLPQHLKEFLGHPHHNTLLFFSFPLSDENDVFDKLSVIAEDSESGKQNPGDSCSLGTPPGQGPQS
Test: cell-based or functional assay

>  <Binder>
IL10R binding molecule of SEQ ID NO: 291 (bispecific antibody) QVQLQESGGGSVQAGGSLRLSCGASGYTYSSYCMGWFRQVPGKEREGVAVIDSDGSTSYADSVKGRFTISKDNGKNTLYLQMNSLKPEDTAMYYCAADLGHYRPPCGVLYLGMDYWGKGTQVTVSSGGGSQVQLQESGGGSVQAGGSLRLSCAASGYTYSSGCMGWFRQAPGKEREAVAAINSDGSTSYADSVKGRFTISKDNAKNTLYLQMNSLKPEDTAMYYCAAEPYCSGGYPRWSVAEFGYWGQGTQVTVSSASHHHHHH

>  <Abs 630 (25 nM) (Abs 630)>
1.73

$$$$
>  <Binder>
IL10R binding molecule of SEQ ID NO: 347 (bispecific antibody) QVQLQESGGGSVQTGGSLRLSCAASGYTYLRGCMGWFRQAPGKEREGVAVMDVVGDRRSYIDSVKGRFTISRDNAANSVYLQMDNLKPEDTAMYYCTAGPNCVGWRSGLDYWGQGTQVTVSSGGGSQVQLQESGGGSVQAGGSLRLSCAASRYLYSIDYMAWFRQSPGKEREPVAVIYTASGATFYPDSVKGRFTISQDNAKMTVYLQMNSLKSEDTAMYYCAAVRKTDSYLFDAQSFTYWGQGTQVTVSSASHHHHHH

>  <Abs 630 (25 nM) (Abs 630)>
0.45

$$$$
>  <Binder>
IL10R binding molecule of SEQ ID NO: 311 (bispecific antibody) QVQLQESGGGSVQAGGSLRLSCAASGYTYSSGCMGWFRQAPGKEREAVAAINSDGSTSYADSVKGRFTISKDNAKNTLYLQMNSLKPEDTAMYYCAAEPYCSGGYPRWSVAEFGYWGQGTQVTVSSGGGSQVQLQESGGGSVQAGGSLRLSCAASGYSNCSYDMTWYRQAPGKEREFVSAIHSDGSTRYADSVKGRFFISQDNAKNTVYLQMNSLKPEDTAMYYCKTDPLHCRAHGGSWYSVRANYWGQGTQVTVSSASHHHHHH

>  <Abs 630 (25 nM) (Abs 630)>
0.48

$$$$
